Please provide measured Kd for the entries that follow.
Target: T1, human CXCR4-enriched lipoparticles (LEV101, Integral Molecular) (human, UniProt P61073 1-352)
T1 construct: Bought reagent; CXCR4 held in lipoparticles captured by biotinylated WGA on an SA chip; also called Lipoparticles containing CXCR4 proteins
T1 sequence (P61073 whole entry): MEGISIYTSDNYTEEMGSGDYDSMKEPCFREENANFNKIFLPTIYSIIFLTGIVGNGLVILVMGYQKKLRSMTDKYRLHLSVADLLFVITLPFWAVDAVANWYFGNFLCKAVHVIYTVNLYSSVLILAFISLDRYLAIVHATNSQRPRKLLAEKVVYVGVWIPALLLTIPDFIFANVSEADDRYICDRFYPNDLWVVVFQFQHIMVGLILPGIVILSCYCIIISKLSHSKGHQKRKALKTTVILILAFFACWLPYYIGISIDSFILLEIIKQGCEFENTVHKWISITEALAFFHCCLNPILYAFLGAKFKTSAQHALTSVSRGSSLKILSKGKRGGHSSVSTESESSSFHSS
Assay: biosensor kinetic titration, Fab over captured human CXCR4 lipoparticles
Give bare numbers, in nM.

Binder: h3G10.A57 VH / h3G10.A58A VL Fab (Fab, V domains shown, Tested as Fab) VH: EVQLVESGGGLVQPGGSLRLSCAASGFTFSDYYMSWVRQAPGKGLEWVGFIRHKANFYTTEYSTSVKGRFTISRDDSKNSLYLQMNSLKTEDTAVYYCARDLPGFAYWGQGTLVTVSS VL: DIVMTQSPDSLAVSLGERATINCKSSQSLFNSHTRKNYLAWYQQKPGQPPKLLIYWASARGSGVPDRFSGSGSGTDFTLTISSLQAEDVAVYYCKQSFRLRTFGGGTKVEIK
Kd / nM: 0.39

# context switch: different binder, same Kd
Using the record for h3G10.A57 VH / h3G10.A58B VL Fab (Fab, V domains shown, Tested as Fab) VH: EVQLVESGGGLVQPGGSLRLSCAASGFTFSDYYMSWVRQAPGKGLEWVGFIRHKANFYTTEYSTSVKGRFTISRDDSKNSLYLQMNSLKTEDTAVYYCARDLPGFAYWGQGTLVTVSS VL: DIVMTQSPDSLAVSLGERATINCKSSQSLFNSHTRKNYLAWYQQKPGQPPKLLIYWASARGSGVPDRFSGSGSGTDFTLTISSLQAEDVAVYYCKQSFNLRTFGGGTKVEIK , report its Kd. 0.75

This collection of values is drawn from patent US20150037328A1.
